Taken from PubChem BioAssay (Tox21).

Experiment summary: qHTS assay to identify small molecule antagonists of the progesterone receptor (PR) signaling pathway - cell viability counter screen (AID 1346798); further: nearly all actives have a fitted effect of over 50% in size
Condition info: PR-UAS-bla HEK293T viability, CellTiter-Glo luminescence, 16 h; series mostly up to 92.4 µM
Results filed as inconclusive are left out. The source made the active and inactive calls. The call rests on the fitted dose curve; in most records, active means well fitted cell-killing curve with a large enough effect in the repeat runs; inconclusive means weak or mixed curves, or effect the other way; inactive means no such curve, though single readings can be large or run the other way.
Possible outcomes: 1 = active, 0 = inactive

>  <Compound>
CN1[C@@H]2CC(OC(=O)[C@H](CO)c3ccccc3)C[C@H]1[C@@H]1O[C@@H]12 (stereo partly specified)

>  <Label>
0

$$$$
>  <Compound>
Cc1ncc([N+](=O)[O-])n1CCO

>  <Label>
0

$$$$
>  <Compound>
O=CC(=O)c1ccccc1

>  <Label>
0

$$$$
>  <Compound>
CCCCCCCC(=O)OCC(COC(=O)CCCCCCC)OC(=O)CCCCCCC

>  <Label>
0

$$$$
>  <Compound>
NC(CO)(CO)CO

>  <Label>
0

$$$$
>  <Compound>
CN(N=O)C(=O)N[C@@H]1[C@@H](O)[C@H](O)[C@@H](CO)O[C@@H]1O

>  <Label>
0

$$$$
>  <Compound>
COc1ccc2c(c1)c(CC(=O)O)c(C)n2C(=O)c1ccc(Cl)cc1

>  <Label>
0

$$$$
>  <Compound>
Nc1ccc(S(N)(=O)=O)cc1

>  <Label>
0

$$$$
>  <Compound>
CC(=O)CCC(=O)O

>  <Label>
0

$$$$
>  <Compound>
C[C@](N)(Cc1ccc(O)c(O)c1)C(=O)O

>  <Label>
0

$$$$
>  <Compound>
CC(C)c1c(C(=O)Nc2ccccc2)c(-c2ccccc2)c(-c2ccc(F)cc2)n1CC[C@@H](O)C[C@@H](O)CC(=O)O

>  <Label>
1

$$$$
>  <Compound>
CCCCOC(=O)c1ccc(O)cc1

>  <Label>
0

$$$$
>  <Compound>
CCc1nc(N)nc(N)c1-c1ccc(Cl)cc1

>  <Label>
0

$$$$
>  <Compound>
CN1CCc2cccc3c2[C@H]1Cc1ccc(O)c(O)c1-3

>  <Label>
0

$$$$
>  <Compound>
CC(=O)C(=O)O

>  <Label>
0

$$$$
>  <Compound>
CN1CCC[C@H]1c1cccnc1

>  <Label>
0

$$$$
>  <Compound>
COc1ccc(C(Cl)=C(c2ccc(OC)cc2)c2ccc(OC)cc2)cc1

>  <Label>
0

$$$$
>  <Compound>
Cc1cccc(C)c1

>  <Label>
0

$$$$
>  <Compound>
CC(=O)CC(c1ccccc1)c1c(O)c2ccccc2oc1=O (stereo unspecified)

>  <Label>
0

$$$$
>  <Compound>
O=S1(=O)OC(c2ccc(O)cc2)(c2ccc(O)cc2)c2ccccc21

>  <Label>
0

$$$$
>  <Compound>
CC(=O)Nc1c(I)c(NC(C)=O)c(I)c(C(=O)O)c1I

>  <Label>
0

$$$$
>  <Compound>
O=C1O[C@H]([C@@H](O)CO)C(O)=C1O

>  <Label>
0

$$$$
>  <Compound>
Cc1cn([C@H]2C=C[C@@H](CO)O2)c(=O)[nH]c1=O

>  <Label>
0

$$$$
>  <Compound>
COc1cccc(O)c1O

>  <Label>
0

$$$$
>  <Compound>
CS(=O)(=O)OCCCCOS(C)(=O)=O

>  <Label>
0

$$$$
>  <Compound>
O=C1OC2(c3ccccc31)c1cc(Br)c(O)c(Br)c1Oc1c2cc(Br)c(O)c1Br

>  <Label>
0

$$$$

----------
Experimental target: Luciferin 4-monooxygenase (Photinus pyralis)
Experiment summary: qHTS assay to identify small molecule inhibitors of firefly luciferase (AID 1224835); further: nearly all actives have a fitted effect of over 25% in size
Condition info: purified P. pyralis luciferase, luminescence inhibition; series mostly up to 115 µM
Inconclusive results are not listed. Active and inactive are the calls of the source. Calls come from the whole dose curve; as a rule, active = well fitted inhibition curve with a large enough effect in the repeat runs; inconclusive = weak or mixed curves; inactive = flat fitted curve, though single readings scatter.
Possible outcomes: active, inactive

>  <Compound>
Cc1cccc(C)c1

>  <Label>
inactive

$$$$
>  <Compound>
CC1(C)O[C@@H]2C[C@H]3[C@@H]4CCC5=CC(=O)C=C[C@]5(C)[C@@]4(F)[C@@H](O)C[C@]3(C)[C@]2(C(=O)CO)O1

>  <Label>
inactive

$$$$
>  <Compound>
OC[C@H]1O[C@H](O[C@]2(CCl)O[C@H](CCl)[C@@H](O)[C@@H]2O)[C@H](O)[C@@H](O)[C@H]1Cl

>  <Label>
inactive

$$$$
>  <Compound>
COc1ccc(CN(CCN(C)C)c2ccccn2)cc1

>  <Label>
inactive

$$$$
>  <Compound>
COc1ccc(OC(F)(F)F)cc1CN[C@H]1CCCN[C@H]1c1ccccc1

>  <Label>
inactive

$$$$
>  <Compound>
Cc1cc(=O)oc2cc(O)ccc12

>  <Label>
inactive

$$$$
>  <Compound>
CCN(CC)C(=O)c1cccc(C)c1

>  <Label>
inactive

$$$$
>  <Compound>
O=C1O[C@H]([C@@H](O)CO)C(O)=C1O

>  <Label>
inactive

$$$$
>  <Compound>
NC(=O)c1cccnc1

>  <Label>
inactive

$$$$
>  <Compound>
CN1CCc2cccc3c2[C@H]1Cc1ccc(O)c(O)c1-3

>  <Label>
inactive

$$$$
>  <Compound>
Nc1c2c(nc3ccccc13)CCCC2

>  <Label>
inactive

$$$$
>  <Compound>
NS(=O)(=O)c1cc2c(cc1Cl)NCNS2(=O)=O

>  <Label>
inactive

$$$$
>  <Compound>
CN[C@H]1CC[C@@H](c2ccc(Cl)c(Cl)c2)c2ccccc21

>  <Label>
inactive

$$$$
>  <Compound>
NC1CCCCC1

>  <Label>
inactive

$$$$
>  <Compound>
CCCc1cc(=O)[nH]c(=S)[nH]1

>  <Label>
inactive

$$$$
>  <Compound>
C1CCC(C(CC2CCCCN2)C2CCCCC2)CC1 (stereo not given)

>  <Label>
inactive

$$$$
>  <Compound>
Nc1ccc2c(c1)CN1C(=O)c3ccccc3C1=N2

>  <Label>
active

$$$$
>  <Compound>
CCCCCCCCCCCCCCCC[N+](C)(C)Cc1ccccc1

>  <Label>
inactive

$$$$
>  <Compound>
CCCCNC(=O)NS(=O)(=O)c1ccc(C)cc1

>  <Label>
inactive

$$$$
>  <Compound>
COc1ccc2c(c1)c(CC(=O)O)c(C)n2C(=O)c1ccc(Cl)cc1

>  <Label>
inactive

$$$$
>  <Compound>
CCN(Cc1c(F)cccc1Cl)c1c([N+](=O)[O-])cc(C(F)(F)F)cc1[N+](=O)[O-]

>  <Label>
inactive

$$$$
>  <Compound>
Nc1ccc(O)c([N+](=O)[O-])c1

>  <Label>
active

$$$$
>  <Compound>
CC1(C)S[C@@H]2[C@H](NC(=O)[C@H](N)c3ccccc3)C(=O)N2[C@H]1C(=O)O

>  <Label>
inactive

$$$$
>  <Compound>
Cc1cn([C@H]2C=C[C@@H](CO)O2)c(=O)[nH]c1=O

>  <Label>
inactive

$$$$
>  <Compound>
NC(CO)(CO)CO

>  <Label>
inactive

$$$$
>  <Compound>
CCCCCCCCCCCC[N+](C)(C)Cc1ccccc1

>  <Label>
inactive

$$$$
>  <Compound>
O=C(Nc1ncc([N+](=O)[O-])s1)c1cccs1

>  <Label>
active

$$$$
>  <Compound>
O=C(O)CC(O)C(=O)O (stereo not given)

>  <Label>
inactive

$$$$
>  <Compound>
Cc1cc(C)nc(NS(=O)(=O)c2ccc(N)cc2)n1

>  <Label>
inactive

$$$$
>  <Compound>
CS(=O)(=O)OCCCCOS(C)(=O)=O

>  <Label>
inactive

$$$$
>  <Compound>
CC(=O)CCC(=O)O

>  <Label>
inactive

$$$$
>  <Compound>
Nc1c(N=Nc2ccc(-c3ccc(N=Nc4cc(S(=O)(=O)O)c5ccccc5c4N)cc3)cc2)cc(S(=O)(=O)O)c2ccccc12

>  <Label>
active

$$$$
>  <Compound>
CN(C)CCOC(c1ccccc1)c1ccccc1

>  <Label>
inactive

$$$$
>  <Compound>
Cc1ncc([N+](=O)[O-])n1C

>  <Label>
inactive

$$$$
>  <Compound>
CC12CCC(CC1)C(C)(C)O2

>  <Label>
inactive

$$$$
>  <Compound>
O=CC(=O)c1ccccc1

>  <Label>
inactive

$$$$
>  <Compound>
F[B-](F)(F)F

>  <Label>
inactive

$$$$
>  <Compound>
CCCCCCc1ccc(O)cc1O

>  <Label>
inactive

$$$$
>  <Compound>
CC(O)(P(=O)(O)O)P(=O)(O)O

>  <Label>
inactive

$$$$
>  <Compound>
CN1CCC[C@H]1c1cccnc1

>  <Label>
inactive

$$$$

----------
Experiment summary: Human pregnane X receptor (PXR) small molecule agonists, qHTS cell viability counter screen (AID 1346977); further: nearly all actives have a fitted effect of over 50% in size
Condition info: PXR-Luc HepG2 viability, CellTiter-Fluor, 24 h; series mostly up to 92.4 µM
Results filed as inconclusive are left out. The source made the active and inactive calls. The call rests on the fitted dose curve; in most records, active means well fitted cell-killing curve with a large enough effect in the repeat runs; inconclusive means weak or mixed curves, or effect the other way; inactive means flat fitted curve, though single readings scatter.
Possible outcomes: true (1) = active, false (0) = inactive

>  <Given smiles>
Nc1ccc(S(N)(=O)=O)cc1

>  <Label>
false (0)

$$$$
>  <Given smiles>
CCCCCCc1ccc(O)cc1O

>  <Label>
false (0)

$$$$
>  <Given smiles>
Cc1cc(=O)oc2cc(O)ccc12

>  <Label>
false (0)

$$$$
>  <Given smiles>
NC1CCCCC1

>  <Label>
false (0)

$$$$
>  <Given smiles>
F[B-](F)(F)F

>  <Label>
false (0)

$$$$
>  <Given smiles>
C[C@](N)(Cc1ccc(O)c(O)c1)C(=O)O

>  <Label>
false (0)

$$$$
>  <Given smiles>
O=CC(=O)c1ccccc1

>  <Label>
false (0)

$$$$
>  <Given smiles>
O=C1c2c(O)cccc2Cc2cccc(O)c21

>  <Label>
false (0)

$$$$
>  <Given smiles>
CC12CCC(CC1)C(C)(C)O2

>  <Label>
false (0)

$$$$
>  <Given smiles>
O=C1NC(=O)C(c2ccccc2)(c2ccccc2)N1

>  <Label>
false (0)

$$$$
>  <Given smiles>
Cc1cc(C)nc(NS(=O)(=O)c2ccc(N)cc2)n1

>  <Label>
false (0)

$$$$
>  <Given smiles>
OC[C@H]1O[C@H](O[C@]2(CCl)O[C@H](CCl)[C@@H](O)[C@@H]2O)[C@H](O)[C@@H](O)[C@H]1Cl

>  <Label>
false (0)

$$$$
>  <Given smiles>
COc1ccc2c(c1)c(CC(=O)O)c(C)n2C(=O)c1ccc(Cl)cc1

>  <Label>
false (0)

$$$$
>  <Given smiles>
CCc1nc(N)nc(N)c1-c1ccc(Cl)cc1

>  <Label>
true (1)

$$$$
